# Tested on: SW579 cells of thyroid cancer
# TEST_SUMMARY: Matrigel transwell invasion test
# Format: cell-based, human
# APPLIED_CONDITIONS: dose 1 μM, 24 h
No end group written: not given here.
Is invasion inhibition rate at least 20%? Then Yes. If not, No.

SUBSTANCE	MEASUREMENT_TARGET	LABEL
MGSTYNKRHSPRRSSVEAKMQSTSCSVRKSSTVTAWPAVVLLLSWGQRRGG-OH [HMMW-III]	SW579 cells of thyroid cancer	No
MERAGVPGFSPRRSSVEAKMQSTSCSVRKSSTVTAWPAVVLLLHTSKDDEE-OH [HMMW-II]	SW579 cells of thyroid cancer	Yes
MGRAGVPGFSPRRSSVEAKMQSTSCSVRKSSTVTAWPAVVLLLSWGQRRGG-OH [HMMW-IX]	SW579 cells of thyroid cancer	Yes
MERAGVPGFSPRRSSVEAKMQSTSCSVRKSSTVTAWPAVVLLLSWGKDDEE-OH [HMMW-IV]	SW579 cells of thyroid cancer	Yes
MERAGVPGFSPRRSSVEAKMQSTSCSVRKSSTVTAWPAVVLLLSWGQRDEE-OH [HMMW-VI]	SW579 cells of thyroid cancer	Yes
MGSTYNPGFSPRRSSVEAKMQSTSCSVRKSSTVTAWPAVVLLLSWGQRRGG-OH [HMMW-V]	SW579 cells of thyroid cancer	No
